Target: hGcgR (Homo sapiens)
Sequence (P47871 26-477): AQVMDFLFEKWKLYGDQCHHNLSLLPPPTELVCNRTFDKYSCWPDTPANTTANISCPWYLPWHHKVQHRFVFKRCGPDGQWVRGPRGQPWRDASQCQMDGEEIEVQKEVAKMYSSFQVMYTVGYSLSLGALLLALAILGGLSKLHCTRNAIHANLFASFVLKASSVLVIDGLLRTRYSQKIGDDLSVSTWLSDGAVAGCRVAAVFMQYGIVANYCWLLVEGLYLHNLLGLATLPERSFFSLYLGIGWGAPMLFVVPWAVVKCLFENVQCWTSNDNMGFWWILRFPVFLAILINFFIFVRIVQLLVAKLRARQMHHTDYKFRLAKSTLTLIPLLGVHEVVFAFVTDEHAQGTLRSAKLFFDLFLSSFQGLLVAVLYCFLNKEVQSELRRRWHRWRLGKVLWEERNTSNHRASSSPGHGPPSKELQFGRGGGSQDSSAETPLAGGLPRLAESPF
Test: Functional cAMP activation in the presence of 0.1% casein (no HSA);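 note: intracellular cAMP rise after 30 min at 37 °C, read by HTRF against a cAMP standard curve, scaled from buffer only (0%) to maximal control ligand response (100%)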
Assay type: cell-based
Settings: in the presence of 0.1% casein (no HSA); geometric mean; read-out: Relative cAMP EC50, hGcgR
Starred links: 1 amine or outer side, 2 acyl side, 3 side chain; linkers in the order of their positions; H or OH if unused. Non-standard residues stand in square brackets, D forms with d. Groups on a side chain read outwards from the residue. No end group written: not given here. *: point of attachment. C20 diacid = O=C(O)CCCCCCCCCCCCCCCCCCC(=O)*; C18 diacid = O=C(O)CCCCCCCCCCCCCCCCC(=O)*; γGlu = O=C(O)[C@H](CCC(=O)[*:2])N[*:1]; αMe4Pal = C[C@](N)(Cc1ccncc1)C(=O)O; αMeY = C[C@](N)(Cc1ccc(O)cc1)C(=O)O; 4Pal = N[C@@H](Cc1ccncc1)C(=O)O; αMeL = CC(C)C[C@](C)(N)C(=O)O; Orn = NCCC[C@H](N)C(=O)O; Dab = NCC[C@H](N)C(=O)O; AEEA = NCCOCCOCC(=O)O; Aib = CC(C)(N)C(=O)O
value.kind: pEC50
In simple prose, pEC50 is minus the logarithm base ten of a concentration in moles per litre.

// returns reported pEC50 for input H-Y[Aib]QGTFTSD[4Pal]SQ[αMeL]LDKK([γGlu-γGlu-C18 diacid])AQ[αMe4Pal]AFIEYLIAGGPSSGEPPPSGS-NH2 [Example 968] 8.33

Also, H-Y[Aib]QGTFTSDFS[Orn][αMeL]LDKK([AEEA-γGlu-γGlu-C18 diacid])AQ[Aib]AFIEYLLE[Aib]GPSSGAPPPSGT-NH2 [Example 278] please. 8.35

Also, Y[Aib]QGTFTSDFS[Orn][αMeL]LDKK([γGlu-γGlu-C18 diacid])AQ[Aib]AFIEYLLEGGPSSGAPPPSGT-NH2 [Example 260] please. 8.30

Also, H-Y[Aib]QGTFTSDYSR[αMeL]LDKK([AEEA-γGlu-C18 diacid])AQ[Aib]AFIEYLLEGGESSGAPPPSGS-NH2 [Example 361] please. 8.56

Also, H-Y[Aib]QGTFTSDFS[Orn][αMeL]LDKK([AEEA-γGlu-C18 diacid])AQ[Aib]AFIEWLLEGGHSSGAPPPSGS-NH2 [Example 170] please. 8.28

Also, H-Y[Aib]QGTFTSD[4Pal]SQ[αMeL]LDKK([γGlu-γGlu-C18 diacid])AQ[αMe4Pal]AFIEYLIE[Aib]GPSSGAPPPSGSGE-NH2 [Example 891] please. 8.50

Also, H-Y[Aib]QGTFTSDFS[Orn][αMeL]LDKK([AEEA-γGlu-C20 diacid])AQ[Aib]AFIEYLLAGGTSSGEPPPSGE-NH2 [Example 106] please. 8.20

Also, H-Y[Aib]QGTFTSD[4Pal]SQ[αMeL]LD[Orn]K([γGlu-γGlu-C18 diacid])AQ[αMe4Pal]AFIE[αMeY]LIA[Aib]GPSSGEPPPSGSEE-NH2 [Example 1094] please. 8.23

Also, Y[Aib]QGTFTSD[4Pal]SQ[αMeL]LD[Orn]K([AEEA-γGlu-C18 diacid])AQ[αMe4Pal]QFIE[αMeY]LIE[Aib]GPSSGEPPPSGSEE-NH2 [Example 1098] please. 8.21

Also, H-Y[Aib]QGTFTSDFS[Orn][αMeL]LDKK([AEEA-γGlu-C18 diacid])AQ[Aib]AFIEYLLEGGPSSGAPPPGGT-NH2 [Example 158] please. 8.43

Also, H-Y[Aib]QGTFTSDFS[Dab][αMeL]LDKK([AEEA-γGlu-C18 diacid])AQ[Aib]AFIEYLLE[Aib]GPSSGAPPPSGS-NH2 [Example 133] please. 8.79

Also, H-Y[Aib]QGTFTSDFSK[αMeL]LDKK([AEEA-γGlu-C20 diacid])AQ[Aib]AFIEYLLAGGPSSGEPPPSSE-NH2 [Example 3] please. 8.42
